A collection of compounds and their measured % degradation of peptidomimetics in 24 h when incubated with simulated intestinal fluid
- Assay details: Stability in simulated intestinal fluid
- Type: in vitro ADME
- Protocol conditions: 2 μM peptidomimetic, simulated intestinal fluid pH 7.5, 37° C., 24 h
Non-standard residues stand in square brackets, D forms with d. Residues, ends and D or L forms follow the SMILES beside them. ξ: configuration not given here. Leu(5,5,5,5',5',5'-F6) = N[C@@H](CC(C(F)(F)F)C(F)(F)F)C(=O)O; ξBip(2'-Et-4'-OMe) = CCc1cc(OC)ccc1-c1ccc(CC(N)C(=O)O)cc1; ξNva(5-(3-Cl-Ph)) = NC(CCCc1cccc(Cl)c1)C(=O)O; ξαMePhe(2-F) = CC(N)(Cc1ccccc1F)C(=O)O; Aib = CC(C)(N)C(=O)O
In your response, the unit should come after the numeric value.

Past entries and their recorded results:
Compound | Meas value
CCc1cc(OC)ccc1-c1ccc(CC(CNC(CCCc2ccccc2F)C(N)=O)NC[C@H](CC(=O)O)NC(=O)[C@H](CO)NC(=O)[C@@H](NC(=O)C(C)(Cc2ccccc2F)NC(=O)[C@@H](NC(=O)CNC(=O)C(CCC#N)NC(=O)C(C)(C)NC(=O)[C@@H](N)Cc2c[nH]cn2)[C@H](C)O)[C@H](C)O)cc1 (single isomer, unassigned) | 00%
CCc1cc(OC)ccc1-c1ccc(CC(NC(=O)[C@H](CC(=O)O)NC(=O)[C@H](CO)NC(=O)[C@@H](NC(=O)[C@H](Cc2ccccc2)NC(=O)[C@@H](NC(=O)CNC(=O)[C@H](CCC(N)=O)NC(=O)C2(NC(=O)[C@@H](N)Cc3c[nH]cn3)CC2)[C@@H](C)O)[C@@H](C)O)C(=O)NC(CCCc2ccc(F)cc2F)C(N)=O)cc1 (single isomer, unassigned) | 40%
CCc1cc(OC)ccc1-c1ccc(CC(NC(=O)[C@H](CC(=O)O)NC(=O)[C@H](CO)NC(=O)[C@@H](NC(=O)[C@H](Cc2ccccc2)NC(=O)[C@@H](NC(=O)CNC(=O)C(CCC#N)NC(=O)C(C)(C)NC(=O)[C@@H](N)Cc2c[nH]cn2)[C@@H](C)O)[C@@H](C)O)C(=O)NC(CCCc2cc(C)cc(C)c2)C(N)=O)cc1 (single isomer, unassigned) | 00%
CCc1cc(OC)ccc1-c1ccc(CC(NC(=O)[C@H](CC(=O)O)NC(=O)[C@H](CO)NC(=O)[C@@H](NC(=O)C(C)(Cc2ccccc2F)NC(=O)[C@@H](NC(=O)CNC(=O)[C@H](CC(C(F)(F)F)C(F)(F)F)NC(=O)C(C)(C)NC(=O)[C@@H](N)Cc2c[nH]cn2)[C@@H](C)O)[C@@H](C)O)C(=O)NC(CCCc2cccc(Cl)c2)C(N)=O)cc1 (some centres unmarked) [compound 236] (H-H[Aib][Leu(5,5,5,5',5',5'-F6)]GT[ξαMePhe(2-F)]TSD[ξBip(2'-Et-4'-OMe)][ξNva(5-(3-Cl-Ph))]-NH2) | 00%

# input for lookup
stdin: Query (compound): CCc1cc(OC)ccc1-c1ccc(CC(CNC(CCCc2ccccc2)C(N)=O)NC[C@H](CC(=O)O)NC(=O)[C@H](CO)NC(=O)[C@@H](NC(=O)C(C)(Cc2ccccc2F)NC(=O)[C@@H](NC(=O)CNC(=O)[C@H](CCC(N)=O)NC(=O)C(C)(C)NC(=O)[C@H](Cc2c[nH]cn2)NC(=O)OC)[C@H](C)O)[C@H](C)O)cc1 (single isomer, unassigned) ; field requested: % degradation of peptidomimetics in 24 h when incubated with simulated intestinal fluid
stdout: 00%

* * *

- Assay target: UniProt:P27487
- Sequence (P27487 whole entry, species assumed): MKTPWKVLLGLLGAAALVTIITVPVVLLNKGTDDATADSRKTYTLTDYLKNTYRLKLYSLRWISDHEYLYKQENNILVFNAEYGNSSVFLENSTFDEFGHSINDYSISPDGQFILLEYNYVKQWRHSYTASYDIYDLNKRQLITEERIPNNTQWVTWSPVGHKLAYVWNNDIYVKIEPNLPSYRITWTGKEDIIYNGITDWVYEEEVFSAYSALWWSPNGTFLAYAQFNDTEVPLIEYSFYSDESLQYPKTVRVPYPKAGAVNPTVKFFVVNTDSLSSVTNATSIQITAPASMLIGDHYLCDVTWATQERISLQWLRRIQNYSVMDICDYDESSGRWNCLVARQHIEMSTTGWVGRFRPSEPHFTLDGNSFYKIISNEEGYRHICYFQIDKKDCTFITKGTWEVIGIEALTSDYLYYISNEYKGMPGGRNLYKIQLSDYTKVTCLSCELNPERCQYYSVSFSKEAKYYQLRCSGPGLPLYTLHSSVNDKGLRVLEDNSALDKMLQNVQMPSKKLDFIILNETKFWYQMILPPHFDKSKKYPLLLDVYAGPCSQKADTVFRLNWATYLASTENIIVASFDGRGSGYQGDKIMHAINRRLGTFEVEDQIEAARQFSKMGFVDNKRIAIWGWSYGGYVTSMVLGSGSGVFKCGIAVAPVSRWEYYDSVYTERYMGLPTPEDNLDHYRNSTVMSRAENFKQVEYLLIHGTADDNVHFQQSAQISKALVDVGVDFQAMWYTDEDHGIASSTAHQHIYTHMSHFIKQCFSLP
- Assay details: Stability against DPP IV enzyme
- Assay type: in vitro ADME
- Protocol conditions: DPP IV enzyme, pH 7.8, 2 μM peptidomimetic, 37° C., read-out: half-life (t1/2) when incubated with DPP-IV enzyme
Starred links: 1 amine or outer side, 2 acyl side, 3 side chain; linkers in the order of their positions; H or OH if unused. Non-standard residues stand in square brackets, D forms with d. Residues, ends and D or L forms follow the SMILES beside them. ξ: configuration not given here. ξBip(2'-Et-4'-OMe) = CCc1cc(OC)ccc1-c1ccc(CC(N)C(=O)O)cc1; X1 = O=C(C(CCCc1ccc(C(F)(F)F)cc1F)N[*:1])[*:2]; Aib = CC(C)(N)C(=O)O
A collection of molecules and their measured half-life at 2 μM

Molecule | Assay target | half-life at 2 μM
CCc1cc(OC)ccc1-c1ccc(CC(NC(=O)[C@H](CC(=O)O)NC(=O)[C@H](CO)NC(=O)[C@@H](NC(=O)[C@H](Cc2ccccc2)NC(=O)[C@@H](NC(=O)CNC(=O)C(CCC#N)NC(=O)C(C)(C)NC(=O)[C@@H](N)Cc2c[nH]cn2)[C@@H](C)O)[C@@H](C)O)C(=O)NC(CCCc2cc(C)cc(C)c2)C(N)=O)cc1 (single isomer, unassigned) | UniProt:P27487 | > 24 h
CCc1cc(OC)ccc1-c1ccc(CC(NC(=O)[C@H](CC(=O)O)NC(=O)[C@H](CO)NC(=O)[C@@H](NC(=O)C(C)(Cc2ccccc2F)NC(=O)[C@@H](NC(=O)CNC(=O)C(CCC#N)NC(=O)C(C)(C)NC(=O)[C@@H](N)Cc2c[nH]cn2)[C@@H](C)O)[C@H](C)O)C(=O)NC(CCCc2ccccc2F)C(N)=O)cc1 (single isomer, unassigned) | UniProt:P27487 | > 24 h

# input for lookup
stdin: Notebook entry, UniProt:P27487 assay: half-life at 2 μM of CCc1cc(OC)ccc1-c1ccc(CC(NC(=O)[C@H](CC(=O)O)NC(=O)[C@H](CO)NC(=O)[C@@H](NC(=O)[C@H](Cc2ccccc2)NC(=O)[C@@H](NC(=O)CNC(=O)[C@H](CCC(N)=O)NC(=O)C(C)(C)NC(=O)[C@@H](N)Cc2c[nH]cn2)[C@@H](C)O)[C@@H](C)O)C(=O)NC(CCCc2ccc(C(F)(F)F)cc2F)C(N)=O)cc1 (stereo partly drawn) [compound 65] (H-H[Aib]QGTFTSD[ξBip(2'-Et-4'-OMe)][X1]-NH2) = ?
stdout: 9 h

* * *

- Assay details: Stability in human plasma
- Format: in vitro ADME
- Protocol conditions: 2 μM peptidomimetic, pooled human plasma, 37° C., 24 h
Value type: % degradation of peptidomimetics in 24 h when incubated with human plasma
In your response, the unit should come after the numeric value.

Compound | Meas value
CCc1cc(OC)ccc1-c1ccc(CC(NC(=O)[C@H](CC(=O)O)NC(=O)[C@H](CO)NC(=O)[C@@H](NC(=O)C(C)(Cc2ccccc2F)NC(=O)[C@@H](NC(=O)CNC(=O)C(CCC#N)NC(=O)C(C)(C)NC(=O)[C@H](Cc2c[nH]cn2)NC(C)=O)[C@@H](C)O)[C@@H](C)O)C(=O)NC(CCCc2ccccc2F)C(N)=O)cc1 (single isomer, unassigned) | 00%
CCc1cc(OC)ccc1-c1ccc(CC(NC(=O)[C@H](CC(=O)O)NC(=O)[C@H](CO)NC(=O)[C@@H](NC(=O)C(C)(Cc2ccccc2F)NC(=O)[C@@H](NC(=O)CNC(=O)C(CCC#N)NC(=O)C(C)(C)NC(=O)[C@@H](N)Cc2c[nH]cn2)[C@H](C)O)[C@H](C)O)C(=S)NC(CCCc2ccccc2F)C(N)=O)cc1 (single isomer, unassigned) | 70%
CCc1cc(OC)ccc1-c1ccc(CC(C(=O)N(C)C(CCCc2ccccc2F)C(N)=O)N(C)C(=O)[C@H](CC(=O)O)NC(=O)[C@H](CO)NC(=O)[C@@H](NC(=O)C(C)(Cc2ccccc2F)NC(=O)[C@@H](NC(=O)CNC(=O)C(CCC#N)NC(=O)C(C)(C)NC(=O)[C@@H](N)Cc2c[nH]cn2)[C@H](C)O)[C@H](C)O)cc1 (single isomer, unassigned) | 78%

stdin: Query (compound): CCc1cc(OC)ccc1-c1ccc(CC(CNC(CCCc2ccccc2F)C(N)=O)NC[C@H](CC(=O)O)NC(=O)[C@H](CO)NC(=O)[C@@H](NC(=O)C(C)(Cc2ccccc2F)NC(=O)[C@@H](NC(=O)CNC(=O)[C@H](CCC(N)=O)NC(=O)C(C)(C)NC(=O)[C@@H](N)Cc2c[nH]cn2)[C@H](C)O)[C@H](C)O)cc1 (single isomer, unassigned) ; field requested: % degradation of peptidomimetics in 24 h when incubated with human plasma
stdout: 00%

stdin: Query (compound): CCc1cc(OC)ccc1-c1ccc(CC(NC(=O)[C@H](CC(=O)O)NC(=O)[C@H](CO)NC(=O)[C@@H](NC(=O)C(C)(Cc2ccccc2F)NC(=O)[C@@H](NC(=O)CNC(=O)[C@H](CC(C(F)(F)F)C(F)(F)F)NC(=O)C(C)(C)NC(=O)[C@@H](N)Cc2c[nH]cn2)[C@@H](C)O)[C@H](C)O)C(=O)NC(CCCc2ccccc2F)C(N)=O)cc1 (single isomer, unassigned) ; field requested: % degradation of peptidomimetics in 24 h when incubated with human plasma
stdout: 00%
